Quick list: LD50 per entry.
# ASSAY_NOTES: Compound was tested for toxicity (lethal dose) in male white swiss mice
# Format: organism-based
# CONDITION_LABEL: mouse, in vivo
Quick note: give the figure in mg/kg, leave out the unit.

Examples with their reported LD50 follow.
# COMPOUND, UNIT_TEXT, LD50
measured = [
    ("C[C@](N)(Cc1ccc(O)c(O)c1)C(=O)O", "mg/kg", 1890),
    ("CC(N)(Cc1cc(O)c(O)cc1O)C(=O)O (racemic)", "mg/kg", 289),
    ("CC(N)Cc1cc(O)c(O)cc1O (racemic)", "mg/kg", 320),
    ("CC(N)Cc1ccc(O)c(O)c1 (racemic)", "mg/kg", 576),
]

Would you kindly look at the next entry?
Lab note: CC(N)(Cc1ccc(O)c(O)c1)C(=O)O (racemic) [METHYLDOPA (RACEMIC)] gave LD50 of 1320

Value source: ChEMBL document CHEMBL1121572
